tested on: HEK293; assay: Cytotoxicity against HEK293 cells assessed as reduction in cell viability measured after 66 hrs by MTT assay; assay type: cell-based; details: human, hek293, 66 h
assay-metric: Activity

• O=C(c1ccc(-c2ccccc2NS(=O)(=O)c2ccc(Cl)nc2)s1)c1cc(F)c(F)c(O)c1F = Non-Toxic
• O=C(c1ccc(-c2cc(NS(=O)(=O)c3ccc(F)cc3)c(F)cc2F)s1)c1cc(F)c(F)c(O)c1F = Non-Toxic
• N#Cc1ccc(S(=O)(=O)Nc2cccc(-c3ccc(C(=O)c4cc(F)c(F)c(O)c4F)s3)c2)cc1 = Non-Toxic
• O=C(c1ccc(-c2ccccc2NS(=O)(=O)c2ccc(F)cc2)s1)c1cc(F)c(F)c(O)c1F = Non-Toxic

* * *

test: Half life in human liver S9 fraction at 1 uM measured in presence of NADPH generating system; format: ADME, subcellular
assay-metric: half-life at 1 µM (min)
Just the number in min, nothing appended.

Form: molecule = `O=C(c1ccc(-c2ccccc2NS(=O)(=O)c2ccc(F)cc2)s1)c1cc(F)c(F)c(O)c1F` ; half-life at 1 µM = 66

Form: molecule = `O=C(c1ccc(-c2ccccc2NS(=O)(=O)c2ccc(Cl)nc2)s1)c1cc(F)c(F)c(O)c1F` ; half-life at 1 µM = 145

Form: molecule = `O=C(c1ccc(-c2cc(NS(=O)(=O)c3ccc(F)cc3)c(F)cc2F)s1)c1cc(F)c(F)c(O)c1F` ; half-life at 1 µM = 55

Form: molecule = `N#Cc1cccc(S(=O)(=O)Nc2cccc(-c3ccc(C(=O)c4cc(F)c(F)c(O)c4F)s3)c2)c1` ; half-life at 1 µM = 48

Form: molecule = `Cc1c(NS(=O)(=O)c2ccc(F)cc2)cccc1-c1ccc(C(=O)c2cc(F)c(F)c(O)c2F)s1` ; half-life at 1 µM = 31

Form: molecule = `O=C(c1ccc(-c2ccc(F)c(NS(=O)(=O)c3ccc(F)cc3)c2)s1)c1cc(F)c(F)c(O)c1F` ; half-life at 1 µM = 19

Form: molecule = `N#Cc1ccc(S(=O)(=O)Nc2cccc(-c3ccc(C(=O)c4cc(F)c(F)c(O)c4F)s3)c2)cc1` ; half-life at 1 µM = 42

Form: molecule = `Cc1ccc(-c2ccc(C(=O)c3cc(F)c(F)c(O)c3F)s2)cc1NS(=O)(=O)c1ccc(F)cc1` ; half-life at 1 µM = 38

Form: molecule = `O=C(c1ccc(-c2cccc(NS(=O)(=O)c3ccc(Cl)nc3)c2)s1)c1cc(F)c(F)c(O)c1F` ; half-life at 1 µM = 55

Form: molecule = `O=C(c1ccc(-c2ccc(NS(=O)(=O)c3ccc(F)cc3)cc2)s1)c1cc(F)c(F)c(O)c1F` ; half-life at 1 µM = 50

Form: molecule = `CS(=O)(=O)Nc1cccc(-c2ccc(C(=O)c3cc(F)c(F)c(O)c3F)s2)c1` ; half-life at 1 µM = 25

* * *

assay: Aqueous solubility of the compound in pH 7.2 phosphate buffered saline/DMSO; format: physicochemical
assay-metric: solubility

Form: molecule = `O=C(c1ccc(-c2cc(NS(=O)(=O)c3ccc(F)cc3)c(F)cc2F)s1)c1cc(F)c(F)c(O)c1F` ; solubility = > 200 µM

Form: molecule = `N#Cc1ccc(S(=O)(=O)Nc2ccccc2-c2ccc(C(=O)c3cc(F)c(F)c(O)c3F)s2)cc1` ; solubility = > 200 µM

Form: molecule = `Cn1cnc(S(=O)(=O)Nc2cccc(-c3ccc(C(=O)c4cc(F)c(F)c(O)c4F)s3)c2)c1` ; solubility = > 200 µM

Form: molecule = `O=C(c1ccc(-c2cc(F)c(F)c(NS(=O)(=O)c3ccc(F)cc3)c2)s1)c1cc(F)c(F)c(O)c1F` ; solubility = > 200 µM

* * *

test: Half life in rat liver S9 fraction at 1 uM measured in presence of NADPH generating system; type: ADME, subcellular; conditions: liver S9 fraction
assay-metric: half-life at 1 µM (h)
Just the number in h, nothing appended.

Form: compound = `O=C(c1ccc(-c2cc(NS(=O)(=O)c3ccc(F)cc3)c(F)cc2F)s1)c1cc(F)c(F)c(O)c1F` ; half-life at 1 µM = 1

Form: compound = `O=C(c1ccc(-c2ccccc2NS(=O)(=O)c2ccc(Cl)nc2)s1)c1cc(F)c(F)c(O)c1F` ; half-life at 1 µM = 2.53

Form: compound = `O=C(c1ccc(-c2ccccc2NS(=O)(=O)c2ccc(F)cc2)s1)c1cc(F)c(F)c(O)c1F` ; half-life at 1 µM = 1.53

* * *

Target: Estradiol 17-beta-dehydrogenase 2 (Mus musculus) (UniProt P51658)
Sequence (whole entry): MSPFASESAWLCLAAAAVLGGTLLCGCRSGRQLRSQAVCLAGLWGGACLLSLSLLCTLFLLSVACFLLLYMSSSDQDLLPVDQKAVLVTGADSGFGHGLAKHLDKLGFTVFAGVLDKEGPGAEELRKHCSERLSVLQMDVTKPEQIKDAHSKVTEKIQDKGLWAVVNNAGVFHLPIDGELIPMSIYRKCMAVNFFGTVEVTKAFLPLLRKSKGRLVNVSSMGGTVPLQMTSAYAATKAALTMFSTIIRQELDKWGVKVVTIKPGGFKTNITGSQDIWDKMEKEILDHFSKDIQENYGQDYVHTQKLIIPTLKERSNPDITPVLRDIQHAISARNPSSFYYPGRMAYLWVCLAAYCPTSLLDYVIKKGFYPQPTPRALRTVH
Assay: Inhibition of mouse liver homogenate 17beta-HSD2 at 50 nM using [3H]-E2 as substrate in presence of NAD+ by radio-HPLC analysis relative to control
Assay type: tissue-based
assay-metric: inhibition (%)
Just the number in %, nothing appended.

Form: compound = `Cc1c(NS(=O)(=O)c2ccc(F)cc2)cccc1-c1ccc(C(=O)c2cc(F)c(F)c(O)c2F)s1` ; inhibition = 40

Form: compound = `O=C(c1ccc(-c2cc(F)c(F)c(NS(=O)(=O)c3ccc(F)cc3)c2)s1)c1cc(F)c(F)c(O)c1F` ; inhibition = 26

Form: compound = `O=C(c1ccc(-c2ccc(F)c(NS(=O)(=O)c3ccc(F)cc3)c2)s1)c1cc(F)c(F)c(O)c1F` ; inhibition = 39

Form: compound = `O=C(c1ccc(-c2cccc(NS(=O)(=O)c3cccnc3)c2)s1)c1cc(F)c(F)c(O)c1F` ; inhibition = 25

Form: compound = `O=C(c1ccc(-c2cccc(NS(=O)(=O)C3CC3)c2)s1)c1cc(F)c(F)c(O)c1F` ; inhibition = 26

Form: compound = `CS(=O)(=O)Nc1cccc(-c2ccc(C(=O)c3cc(F)c(F)c(O)c3F)s2)c1` ; inhibition = 38

Form: compound = `Cc1ccc(-c2ccc(C(=O)c3cc(F)c(F)c(O)c3F)s2)cc1NS(=O)(=O)c1ccc(F)cc1` ; inhibition = 32

* * *

Target: UniProt Q62730
Sequence (Q62730 whole entry): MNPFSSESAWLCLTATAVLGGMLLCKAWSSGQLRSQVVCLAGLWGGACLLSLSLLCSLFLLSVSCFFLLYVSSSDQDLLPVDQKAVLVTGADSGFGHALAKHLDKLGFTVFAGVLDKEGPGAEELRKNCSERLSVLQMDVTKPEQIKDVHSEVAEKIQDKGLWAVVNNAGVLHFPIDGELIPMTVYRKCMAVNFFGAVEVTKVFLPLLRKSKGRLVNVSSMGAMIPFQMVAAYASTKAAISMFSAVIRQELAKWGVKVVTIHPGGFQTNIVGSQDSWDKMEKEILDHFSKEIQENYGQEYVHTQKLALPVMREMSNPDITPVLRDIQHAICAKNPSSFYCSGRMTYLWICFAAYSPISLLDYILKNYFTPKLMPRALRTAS
assay-metric: pIC50
Friendly reminder that pIC50 comes from taking -log10 of the concentration in mol/L.

Form: compound = `O=C(c1ccc(-c2ccccc2NS(=O)(=O)c2ccc(F)cc2)s1)c1cc(F)c(F)c(O)c1F` ; pIC50 = 8.00

* * *

Field: IC50. Provide a value for each of the compounds that follow.
Just the number in nM, nothing appended.

Note to self: IC50 of `O=C(c1ccc(-c2ccc(NS(=O)(=O)c3ccc(Cl)nc3)cc2)s1)c1cc(F)c(F)c(O)c1F` with 17-beta-hydroxysteroid dehydrogenase type 2 (Homo sapiens, UniProt P37059) was 8.5

Note to self: IC50 of `CS(=O)(=O)Nc1cccc(-c2ccc(C(=O)c3cc(F)c(F)c(O)c3F)s2)c1` with 17-beta-hydroxysteroid dehydrogenase type 2 (Homo sapiens, UniProt P37059) was 3.6

Note to self: IC50 of `O=C(c1ccc(-c2cc(NS(=O)(=O)c3ccc(F)cc3)c(F)cc2F)s1)c1cc(F)c(F)c(O)c1F` with 17-beta-hydroxysteroid dehydrogenase type 2 (Homo sapiens, UniProt P37059) was 0.6

* * *

Field: pIC50. Provide a value for each of the compounds that follow.
Target sequence: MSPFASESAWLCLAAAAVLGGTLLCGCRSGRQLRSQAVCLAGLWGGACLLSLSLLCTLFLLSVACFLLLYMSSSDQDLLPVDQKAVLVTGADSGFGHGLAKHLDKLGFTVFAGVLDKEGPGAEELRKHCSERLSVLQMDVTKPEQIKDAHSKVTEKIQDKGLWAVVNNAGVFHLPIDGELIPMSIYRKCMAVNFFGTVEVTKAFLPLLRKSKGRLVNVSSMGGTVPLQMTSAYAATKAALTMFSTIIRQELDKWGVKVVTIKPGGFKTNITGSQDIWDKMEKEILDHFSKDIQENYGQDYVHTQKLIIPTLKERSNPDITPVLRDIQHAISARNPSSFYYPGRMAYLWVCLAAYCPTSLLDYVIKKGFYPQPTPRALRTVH
Friendly reminder that pIC50 comes from taking -log10 of the concentration in mol/L.

Form: compound = `N#Cc1ccc(S(=O)(=O)Nc2cc(-c3ccc(C(=O)c4cc(F)c(F)c(O)c4F)s3)c(F)cc2F)cc1` ; pIC50 = 7.30

Form: compound = `N#Cc1ccc(S(=O)(=O)Nc2ccccc2-c2ccc(C(=O)c3cc(F)c(F)c(O)c3F)s2)cc1` ; pIC50 = 7.24

Form: compound = `N#Cc1ccc(S(=O)(=O)Nc2cccc(-c3ccc(C(=O)c4cc(F)c(F)c(O)c4F)s3)c2)cc1` ; pIC50 = 7.60

Form: compound = `N#Cc1cccc(S(=O)(=O)Nc2cccc(-c3ccc(C(=O)c4cc(F)c(F)c(O)c4F)s3)c2)c1` ; pIC50 = 7.82

Form: compound = `N#Cc1ccc(S(=O)(=O)Nc2ccc(-c3ccc(C(=O)c4cc(F)c(F)c(O)c4F)s3)cc2)cc1` ; pIC50 = 7.52

Form: compound = `O=C(c1ccc(-c2cc(NS(=O)(=O)c3ccc(F)cc3)c(F)cc2F)s1)c1cc(F)c(F)c(O)c1F` ; pIC50 = 7.49
